# System: Escherichia coli TOP10;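 also: peptides expressed intracellularly from a pBAD plasmid library in pooled LB shake-flask culture, induced with 0.3% L-arabinose, DNA abundance read by NGS, three biological replicates, DESeq2 with apeglm shrinkage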
# Assay Procedure: shrunken log2 fold change of peptide-encoding DNA abundance (4.5 h post-induction vs induction); higher = less antimicrobial activity (less host growth inhibition)
# Setup Conditions: time post-induction: 4.5 h; library: site-saturation at positions 5, 18, 19, 20
Recorded shrunken log2 fold change values for a group of sequences are listed next.

Here's what some known entries look like.
RRIRTRPPRLPRPRPRPYYMPRP	-1.06
RRIRCRPPRLPRPRPRPDQGPRP	-0.143
RRIRCRPPRLPRPRPRPMQWPRP	0.226
RRIRCRPPRLPRPRPRPRWRPRP	0.442
RRIRLRPPRLPRPRPRPDKGPRP	-0.162

In plain terms, `RRIRFRPPRLPRPRPRPQAEPRP` has a documented shrunken log2 fold change of -0.263

Quick note, shrunken log2 fold change for `RRIRIRPPRLPRPRPRPRFKPRP` landed at -0.575

Attribution: the supplement of paper PMC9112550
